assay: inhibitors of poly I:C-induced TLR3 signaling, primary screen, cell-based, poly I:C stimulus, luciferase, 10K MLSCN set (AID 602277); conditions: HEK293-TLR3 RL24 IRF3 luciferase reporter, at 10 µM, stronger effect = higher value
outcome.measure: inhibition (%)
# number only, unit % dropped from output

input: Given the compound CCOC(=O)C1CCN(c2c(N3CCCCCC3)c(=O)c2=O)CC1 , what is its reported inhibition?
output: 28.8

input: Given the compound Cc1noc(C)c1S(=O)(=O)N1CCCC(C(=O)NCCc2ccc(Cl)cc2)C1 (configuration not stated) , what is its reported inhibition?
output: 7.58

input: Given the compound CCOC(=O)c1c(C)[nH]c(C(=O)Cn2c(=O)c3c(ncn3CC)n(Cc3ccccc3)c2=O)c1C , what is its reported inhibition?
output: 24.5

input: Given the compound CCOc1cccc(-c2nnc3sc(COc4ccc(OC)cc4)nn23)c1 , what is its reported inhibition?
output: 17.6

input: Given the compound COC(=O)Cc1c(C)c2ccc(OCC(=O)N3CCOCC3)cc2oc1=O , what is its reported inhibition?
output: 13.9

input: Given the compound N#Cc1nc(-c2ccccc2Cl)oc1N1CCOCC1 , what is its reported inhibition?
output: -5.75

input: Given the compound O=C(CCn1c(=O)sc2ccccc21)Nc1nccs1 , what is its reported inhibition?
output: -66.6

input: Given the compound COc1cc(NC(=O)CSCc2cnn(-c3ccccc3)c2-n2cccc2)cc(OC)c1 , what is its reported inhibition?
output: 11.2

input: Given the compound CCn1c(SCC(=O)Nc2ccc3c(c2)OCO3)nnc1-c1ccccc1O , what is its reported inhibition?
output: 0.128

input: Given the compound CCCC(=O)Nc1nnc(CC(=O)OCC)s1 , what is its reported inhibition?
output: 15.8

input: Given the compound CC1Cc2nc(SCC(=O)Nc3ccc4c(c3)OCO4)n(-c3ccc(F)cc3)c(=O)c2S1 (configuration not stated) , what is its reported inhibition?
output: 51.2

input: Given the compound COC(=O)C(O)(CC(=O)c1ccc(OC)cc1)C(F)(F)F (configuration not stated) , what is its reported inhibition?
output: 9.82

input: Given the compound COc1ccc(C)cc1-n1nnnc1SCC(=O)Nc1cc(C)on1 , what is its reported inhibition?
output: 12.5

input: Given the compound COc1ccc(C(=O)Nc2ccccc2C(=O)NCCN2CCOCC2)cc1 , what is its reported inhibition?
output: -25.1

input: Given the compound c1ccc(OCCCn2nnc(-c3cccnc3)n2)cc1 , what is its reported inhibition?
output: -2.63

input: Given the compound COc1ccc(C)cc1NC(=O)COCC(=O)O , what is its reported inhibition?
output: 9.35

input: Given the compound CCCCOc1cc(=O)[nH]c(=O)[nH]1 , what is its reported inhibition?
output: 8.55

input: Given the compound O=C(Nc1ccc(S(=O)(=O)Nc2ccc(Cl)cc2)cc1)C1CCCO1 (configuration not stated) , what is its reported inhibition?
output: -12.8

input: Given the compound Cn1c(-c2ccccc2)cc(=O)c2ccccc21 , what is its reported inhibition?
output: 16.3

input: Given the compound Cc1ccc(C)c(C(=O)CC2(O)C(=O)Nc3ccccc32)c1 (configuration not stated) , what is its reported inhibition?
output: -1.7

input: Given the compound Cc1ccc(S(=O)(=O)N2CCN(S(=O)(=O)N(C)C)CC2)cc1 , what is its reported inhibition?
output: 15.4

input: Given the compound Cc1nc2ccccc2c2c1C(=O)N(CCC1=CCCCC1)C2=O , what is its reported inhibition?
output: 42.1

input: Given the compound CCOC(=O)C1=C(C)NC(=O)NC1c1ccc(OCCO)c(OC)c1 (configuration not stated) , what is its reported inhibition?
output: 25.5

input: Given the compound COc1ccc(C(=O)N(CCCO)Cc2cc3c(C)ccc(C)c3[nH]c2=O)cc1OC , what is its reported inhibition?
output: 19

input: Given the compound O=C(O)CCn1[nH]c(=O)ccc1=O , what is its reported inhibition?
output: 18

input: Given the compound CCc1ccccc1OCCCCCNCCO , what is its reported inhibition?
output: 31.9

input: Given the compound CCCCn1c(SCC(=O)Nc2cc(C)on2)nnc1-c1cccnc1 , what is its reported inhibition?
output: 6.93

input: Given the compound O=S(=O)(c1cccs1)N1CCN(C/C=C/c2ccccc2)CC1 , what is its reported inhibition?
output: 9.74

input: Given the compound CCOc1cc(S(=O)(=O)Nc2ccccn2)ccc1F , what is its reported inhibition?
output: -11.5

input: Given the compound COCCOC(=O)c1[nH]c2c(c1C)C(=O)CC(c1ccco1)C2 (configuration not stated) , what is its reported inhibition?
output: 77.7

input: Given the compound CC(C)(C)NC(=O)CSc1nnc(-c2ccccn2)n1-c1ccccc1 , what is its reported inhibition?
output: 26.8

input: Given the compound CCCc1ccc(S(=O)(=O)NCCc2ccncc2)cc1 , what is its reported inhibition?
output: -11.2

input: Given the compound N#Cc1cc2ccccc2nc1SCC(=O)Nc1ccccc1N1CCOCC1 , what is its reported inhibition?
output: 9.63

input: Given the compound O=C(CCN1C(=O)C2C3C=CC(C3)C2C1=O)NC1CCCc2ccccc21 (configuration not stated) , what is its reported inhibition?
output: 30.7

input: Given the compound Cc1ccc(NC(=O)CCN2CCc3ccccc3C2)cc1 , what is its reported inhibition?
output: 24.7

input: Given the compound O=P(O)(CN1CCCCCC1)CN1CCCCCC1 , what is its reported inhibition?
output: 17.4

input: Given the compound COC(=O)c1ccccc1NC(=O)C1CC(=O)N(c2ccc(F)cc2)C1 (configuration not stated) , what is its reported inhibition?
output: 5.83

input: Given the compound N#C/C(=C(/O)CN1CCOCC1)c1nc2ccccc2s1 , what is its reported inhibition?
output: -1.7

input: Given the compound O=c1[nH]c(N2CCc3ccccc32)nc2c1CCCC2 , what is its reported inhibition?
output: -14.4

input: Given the compound CCC(C)Nc1nc2c(c(=O)n(C)c(=O)n2C)n1Cc1ccc(F)cc1 (configuration not stated) , what is its reported inhibition?
output: 23.7

input: Given the compound O=C(Nc1ccccc1)C1=C(O)CC(c2ccoc2)CC1=Nc1ccccc1 (configuration not stated) , what is its reported inhibition?
output: 16.9

input: Given the compound CCCn1c(O)c(CN2CCCC(C)C2)c(C)c(C#N)c1=O (configuration not stated) , what is its reported inhibition?
output: 22.1

input: Given the compound COC(=O)c1ccc(NC2(C#N)C(=O)Nc3ccccc32)cc1 (configuration not stated) , what is its reported inhibition?
output: 8.66

input: Given the compound Cc1nc2cc(Cl)ccc2n1CCO , what is its reported inhibition?
output: 21.6

input: Given the compound COc1cc(S(=O)(=O)N2CCOCC2)ccc1NC(=O)COC(=O)C12CC3CC(CC(C3)C1)C2 , what is its reported inhibition?
output: 19.8

input: Given the compound CN(CC(=O)Nc1nccs1)S(=O)(=O)c1ccc(F)cc1 , what is its reported inhibition?
output: 1.06

input: Given the compound Cc1cc(C(=O)NCc2cccnc2)n(-c2ccccc2)n1 , what is its reported inhibition?
output: 8.35

====

assay: inhibitors of E-selectin induction by TNFa, primary screen, imaging, HUVEC, immunofluorescence, MLSMR starter and 10KST1 sets (AID 487); settings: HUVEC TNFalpha-induced E-selectin immunofluorescence imaging, at 2 µM; measured here: cell number, toxicity;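 note: 100% = median nuclei count of all wells on the same plate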
outcome.measure: nuclei count (%)
# number only, unit % dropped from output

input: Given the molecule CC(=O)O[C@H]1CSC[C@H]1NC(=O)c1ccccc1 , what is its reported nuclei count?
output: 111

input: Given the molecule Cc1ccccc1Cn1cc(/C=N/n2cnnc2)c2ccccc21 , what is its reported nuclei count?
output: 113

input: Given the molecule Cc1cc(=O)oc2cc(OCC(=O)NCc3cccnc3)ccc12 , what is its reported nuclei count?
output: 105

input: Given the molecule Cc1cc(C)n2nc(S(=O)(=O)N(C)c3ccccc3)nc2n1 , what is its reported nuclei count?
output: 114

input: Given the molecule CCCc1nc(N2CCCC2)c(C#N)c2c1CCCC2 , what is its reported nuclei count?
output: 141

input: Given the molecule COc1ccc(N2C(=O)CC(N3CCCC4CCCCC43)C2=O)cc1 (stereo unspecified) , what is its reported nuclei count?
output: 79.8

input: Given the molecule CSc1nc2sc3c(c2c2nnnn12)CCC3 , what is its reported nuclei count?
output: 143

input: Given the molecule CCOC(=O)c1cnn(-c2cc(C)c3cc(C)cc(C)c3n2)c1N , what is its reported nuclei count?
output: 152

input: Given the molecule O=C(COC(=O)C1CC(=O)N(c2ccccc2)C1)c1ccccc1 (stereo unspecified) , what is its reported nuclei count?
output: 123

input: Given the molecule COc1ccc(-c2nc3c(c(=O)n(C)c(=O)n3C)n2CC2CC(c3ccccc3)=NO2)cc1OC (stereo unspecified) , what is its reported nuclei count?
output: 86.7

input: Given the molecule COc1ccc(CCn2c(=N)c(C(=O)NCc3ccco3)cc3c(=O)n4ccccc4nc32)cc1OC , what is its reported nuclei count?
output: 174
